Reference source: ChEMBL document CHEMBL3988442

Tested on: Wolbachia pipientis
PROTOCOL: Anti-Wolbachia Cell-Based Screen
Format: functional
Design: scale not given: in the data most compounds retested in dose-response had high values
TEST CONDITIONS: 5 µM
The campaign covered roughly 48,000 compounds. About 13,000 (27%) showed an effect of 50% or more. The list shows a part of the results.
READOUT: Percent Effect (%)

INSERT INTO assay_data (compound, readout, test_value) VALUES
  ('O=C(c1ccco1)N1CCCC2(CCN(CCN3CCCC3)C2=O)C1 (centres undefined)', 'Percent Effect', 0.2637),
  ('Cc1noc(C)c1CN1CCN(Cc2cccnc2)c2ncccc2C1.O=C(O)C(F)(F)F.O=C(O)C(F)(F)F.O=C(O)C(F)(F)F', 'Percent Effect', -12.75),
  ('C[C@H]1CN(C(=O)c2cccnc2)C[C@@]12CCN(CCN1CCCC1)C2=O', 'Percent Effect', 107.9),
  ('Cc1noc(C)c1CN1C[C@H](C)[C@]2(CCN(Cc3cccnc3)C2=O)C1.O=C(O)C(F)(F)F.O=C(O)C(F)(F)F', 'Percent Effect', 119.9);

----------
Test system: Wolbachia pipientis
PROTOCOL: Anti-Wolbachia Cell-Based Screen
Format: functional
Parameters: scale not given: in the data most compounds retested in dose-response had high values
TEST CONDITIONS: 5 µM
The whole screen tested about 48,000 compounds, of which about 13,000 (27%) showed an effect of 50% or more. The list shows a part of the results.
READOUT: Percent Effect (%)

INSERT INTO results (compound, system_name, test_value) VALUES
  ('O=C(N[C@H]1CCCC[C@@H]1O)c1cccc(-c2nc3ccccc3[nH]2)c1', 'Wolbachia pipientis', 102.7),
  ('Cc1ccc(CCNC(=O)c2cccnc2)o1', 'Wolbachia pipientis', -1.027),
  ('Cc1c(C2CCCN(C(=O)C3CC3)C2)n2c(nc1=O)CCC2.Cl (stereo not drawn)', 'Wolbachia pipientis', 11.8),
  ('CN(Cc1cc(=O)c(O)co1)C1CCN(c2ccc(F)cc2)CC1', 'Wolbachia pipientis', -14.07),
  ('CC1CCN(S(=O)(=O)c2cccn(CC(=O)N3CCOCC3)c2=O)CC1', 'Wolbachia pipientis', 5.887),
  ('O=C(N[C@H]1CCCC[C@@H]1O)c1ccc2nc(-c3ccccc3)[nH]c2c1', 'Wolbachia pipientis', 121.7),
  ('CCCn1cc(C(=O)NCc2nnc(-c3ccc(C)nc3)o2)c(C)n1', 'Wolbachia pipientis', 141.9),
  ('CCOC(=O)c1ccc(CNC(=O)c2ccc(C)nc2)o1', 'Wolbachia pipientis', 18.5),
  ('O=S(=O)(Nc1ccc(N2CCOCC2)cn1)c1ccc(F)cc1', 'Wolbachia pipientis', -10.45),
  ('Cc1c(C2CCCN(C(=O)c3ccn(C)n3)C2)n2c(nc1=O)CCC2 (stereo not drawn)', 'Wolbachia pipientis', 88.69),
  ('COc1nc2c(cc1C(=O)N1CC[C@H](CO)[C@@H](O)C1)CCC2', 'Wolbachia pipientis', 9.103),
  ('Cc1csc(C2(NCc3nc(-c4ccco4)oc3C)CCCC2)n1', 'Wolbachia pipientis', 21.68),
  ('CNC(=O)Cc1ccccc1NC(=O)N[C@H]1c2ccccc2C[C@H]1O', 'Wolbachia pipientis', 73.79),
  ('CN(CCO)C(=O)Nc1ccn(-c2cccc(C(F)(F)F)c2)n1', 'Wolbachia pipientis', -1.058),
  ('Cc1cnc(C(=O)N2CCCC(c3c(C)c(=O)nc4n3CCC4)C2)cn1.Cl (stereo not drawn)', 'Wolbachia pipientis', 99.49),
  ('Cc1cnc(C(=O)N2CCCC(Cn3cc(C4CC4)nn3)C2)cn1 (stereo not drawn)', 'Wolbachia pipientis', 1.892),
  ('CN(C(=O)CCNC(=O)C1COc2ccccc21)c1ccccc1 (stereo not drawn)', 'Wolbachia pipientis', 1.32),
  ('CS(=O)(=O)c1ccccc1NC(=O)N[C@@H]1c2ccccc2C[C@@H]1O', 'Wolbachia pipientis', 6.839),
  ('O[C@H]1CC[C@@H](Cc2cc(-c3ccccc3)on2)O[C@@H]1CNCC1CC1', 'Wolbachia pipientis', 0.08363),
  ('CCCn1cc(C(=O)NCCc2ccncc2)c(C)n1', 'Wolbachia pipientis', -13.4),
  ('OCC1CCCCN1CCn1ccnc1-c1nc2ccccc2[nH]1 (stereo not drawn)', 'Wolbachia pipientis', 1.292),
  ('CCc1ccc(C2COCCN2C(=O)Nc2ccc(C#N)cc2)o1 (stereo not drawn)', 'Wolbachia pipientis', -6.805),
  ('COc1ccnc(N2CCN(C(=O)c3csc(C(C)C)n3)CC2)n1', 'Wolbachia pipientis', -5.502);
